Target: human Cereblon WT GST-tagged protein (Homo sapiens)
Construct: purchased CISBIO 64BDCRBNPEH
Sequence (Q96SW2 whole entry): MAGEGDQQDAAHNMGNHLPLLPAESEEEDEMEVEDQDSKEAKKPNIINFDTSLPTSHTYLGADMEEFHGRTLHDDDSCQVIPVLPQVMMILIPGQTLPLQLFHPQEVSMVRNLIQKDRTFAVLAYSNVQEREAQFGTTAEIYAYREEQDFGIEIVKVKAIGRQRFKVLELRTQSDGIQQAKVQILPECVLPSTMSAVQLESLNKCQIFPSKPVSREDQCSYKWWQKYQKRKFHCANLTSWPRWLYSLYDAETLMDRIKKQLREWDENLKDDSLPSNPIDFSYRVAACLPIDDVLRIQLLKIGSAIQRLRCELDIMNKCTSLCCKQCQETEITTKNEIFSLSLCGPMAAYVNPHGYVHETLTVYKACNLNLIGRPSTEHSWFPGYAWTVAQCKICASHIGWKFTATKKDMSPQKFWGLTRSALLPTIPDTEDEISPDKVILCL
Assay: CRBN-binding affinity, HTRF (CEREBLON BINDING kit)
Details: read-out: Inhibition Rate at 2 µM (%)
Reported inhibition at 2 µM values follow for various compounds

Sample records with inhibition at 2 µM:
COMPOUND: O=C1CCC(N2Cc3cc(CN4CCN(c5ccccc5)CC4)ccc3C2=S)C(=O)N1 (stereo not shown)
TARGET UNDER TEST: human Cereblon WT GST-tagged protein (Homo sapiens)
inhibition at 2 µM: 80 to 100%
//
COMPOUND: O=C1CCC(N2Cc3c(CN4CCN(c5ccc(F)cc5F)CC4)cccc3C2=S)C(=O)N1 (stereo not shown)
TARGET UNDER TEST: human Cereblon WT GST-tagged protein (Homo sapiens)
inhibition at 2 µM: 60 to 80%
//
COMPOUND: O=C1CCC(N2Cc3cc(CN4CCN(c5ccnc(F)c5F)CC4)ccc3C2=S)C(=O)N1 (stereo not shown)
TARGET UNDER TEST: human Cereblon WT GST-tagged protein (Homo sapiens)
inhibition at 2 µM: 80 to 100%
//
COMPOUND: O=C1CCC(N2Cc3c(CN4CC=C(c5cccc6c(F)cccc56)CC4)cccc3C2=S)C(=O)N1 (stereo not shown)
TARGET UNDER TEST: human Cereblon WT GST-tagged protein (Homo sapiens)
inhibition at 2 µM: 53 to 60%

Q: I am curious: what inhibition at 2 µM value has been reported for O=C1CCC(N2Cc3cc(CN4C5CC4CN(C(c4ccccc4)c4ccccc4)C5)ccc3C2=S)C(=O)N1 (stereo not shown) ?
Result: 80 to 100%

Q: Okay, and CC1(C)CCC(CN2CC3CCC(C2)N3Cc2ccc3c(c2)CN(C2CCC(=O)NC2=O)C3=S)=C(c2ccc(Cl)cc2)C1 (stereo not shown) ?
Result: 60 to 80%

Q: Same thing, different compound: O=C1CCC(N2Cc3cc(CN4CCN(C(c5ccccc5)c5cccnc5)CC4)ccc3C2=S)C(=O)N1 (stereo not shown)
Result: 80 to 100%

Q: // repeat for O=C1CCC(N2Cc3c(CN4CCN(c5cccc(Cl)n5)CC4)cccc3C2=S)C(=O)N1 (stereo not shown) and report
Result: 80 to 100%

Q: Try this compound too: O=C1CCC(N2Cc3cc(CN4CCC(c5cccc(C(F)(F)F)c5)CC4)ccc3C2=S)C(=O)N1 (stereo not shown)
Result: 80 to 100%

Q: Another: Cc1nc(C2=CCN(Cc3cccc4c3CN(C3CCC(=O)NC3=O)C4=S)CC2)c2c(-c3ccccc3)csc2n1 (stereo not shown)
Result: 80 to 100%

Q: Param item: O=C1CCC(N2Cc3c(CN4CC=C(c5ncccc5F)CC4)cccc3C2=S)C(=O)N1 (stereo not shown)
Result: 60 to 80%

Q: Same read-out for O=C1CCC(N2Cc3c(CN4CCN(c5c(F)cccc5F)CC4)cccc3C2=S)C(=O)N1 (stereo not shown) ?
Result: 60 to 80%

Q: Continue with O=C1CCC(N2Cc3c(CN4CCN(c5ccncc5Br)CC4)cccc3C2=S)C(=O)N1 (stereo not shown)
Result: 80 to 100%

Q: Record: O=C1CCC(N2Cc3cc(CN4CCC(c5n[nH]c6cc(F)ccc56)CC4)ccc3C2=S)C(=O)N1 (stereo not shown)
Result: 80 to 100%

Q: What would you report for O=C1CCC(N2Cc3cc(CN4CC=C(c5cccc(F)c5Cl)CC4)ccc3C2=S)C(=O)N1 (stereo not shown) ?
Result: 80 to 100%

Q: Then this compound: Cc1ccsc1C1CCN(Cc2cccc3c2CN(C2CCC(=O)NC2=O)C3=S)CC1 (stereo not shown)
Result: 60 to 80%

src = patent EP4745135A1
